assay: amyloid nucleation score (Sup35N fusion, yeast selection) (log enrichment); library NNK2; higher = more nucleation; inactive = no reads after selection;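 further: zero at mode of non-aggregating sequences after 7 days selection at 30°C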
Property: amyloid nucleation score
Give only the figure.

Value of measured amyloid nucleation score for the entry TLPWFGSFLRGVFKVPLIRG : 2.27

Value of measured amyloid nucleation score for the entry YCFEADVARMIQVFLVFCAS : 0.259

Value of measured amyloid nucleation score for the entry YRRRSKHAVNKGRMCA : 1.3

Value of measured amyloid nucleation score for the entry NRSTDAYFIILHICYTNGVY : -0.429

Value of measured amyloid nucleation score for the entry SLVFVFVITKT : 5.53

Value of measured amyloid nucleation score for the entry TIYHSGRCLRKKGRELW : -0.139

Value of measured amyloid nucleation score for the entry HIVEDLRVSAFTFSIKFISE : 3.33

Value of measured amyloid nucleation score for the entry LVYTPCLILGDELAVTGVKR : -0.337

Value of measured amyloid nucleation score for the entry AALHNYAVSFCFMSPMKQKT : -0.542

Value of measured amyloid nucleation score for the entry MIQEVLWLVSS : 0.043

Value of measured amyloid nucleation score for the entry FRLLWCMFSL : 0.571

Value of measured amyloid nucleation score for the entry NCPRWICAILYEYHAVRRRV : 0.713

Value of measured amyloid nucleation score for the entry HNGVRRHMSNVSKILHSYF : 0.02

Value of measured amyloid nucleation score for the entry GSRPEWARVLGSLEIGCGAK : 0.535

Value of measured amyloid nucleation score for the entry NSRNSSYKWFSSSFVHVADF : 1.71

Value of measured amyloid nucleation score for the entry RSSSSTMDMM : 0.85

Value of measured amyloid nucleation score for the entry AWRMCTV : 0.302

Value of measured amyloid nucleation score for the entry GTLGFDLKR : -0.507

====

Consider the following substances; for each one, report its amyloid nucleation score.
experiment: amyloid nucleation score (Sup35N fusion, yeast selection) (log enrichment); library NNK2; higher = more nucleation; inactive = no reads after selection
Give only the figure.

Value of measured amyloid nucleation score for the entry VHGRGNLKA : 0.032

Value of measured amyloid nucleation score for the entry FLCRLLGSGRSHHIRVC : 0.15

Value of measured amyloid nucleation score for the entry CYFSGSVSRTSVRLVLLSNG : -0.573

Value of measured amyloid nucleation score for the entry AMVLFDGNVLWIHDRSCRRI : 0.862

Value of measured amyloid nucleation score for the entry GFLFRFETRKTHRSCLSWIG : 1.71

Value of measured amyloid nucleation score for the entry ARRKVSHNV : 0.205

Value of measured amyloid nucleation score for the entry NGLQRLITNSKFPTRWTWFG : 0.206

Value of measured amyloid nucleation score for the entry VNAHLWYIFRVWDVKDRVVD : -0.315

Value of measured amyloid nucleation score for the entry GFTENKIRDVFGVFHFIVGD : 0.479

Value of measured amyloid nucleation score for the entry YVPPQWRIVDRNVSY : 0.012

Value of measured amyloid nucleation score for the entry SLTLLGLNR : -0.22

Value of measured amyloid nucleation score for the entry WNINRIPFKVRWRAIFHMYH : -1.25

Value of measured amyloid nucleation score for the entry RGMVLS : -0.129

Value of measured amyloid nucleation score for the entry YRLFSRWAVVRFMGVGSLSF : -0.691

Value of measured amyloid nucleation score for the entry DFESGWFSVDFVN : -0.853

Value of measured amyloid nucleation score for the entry WLVMEATLAFIRYTRGSFSL : -0.432

====

assay: amyloid nucleation score (Sup35N fusion, yeast selection) (log enrichment); library NNK1; higher = more nucleation; inactive = no reads after selection
Consider the following substances; for each one, report its amyloid nucleation score.
Give only the figure.

Value of measured amyloid nucleation score for the entry EFLRNGLIILIVSLSAGELS : 0.137

Value of measured amyloid nucleation score for the entry TCKTCLR : 0.858

Value of measured amyloid nucleation score for the entry LLGDMMALQAYSELLRFMSG : -0.234

Value of measured amyloid nucleation score for the entry LCLISDMPKHFGCGYTKCSL : -1.17

Value of measured amyloid nucleation score for the entry INYFRWGDIFVYSNSKSSRL : 0.511

Value of measured amyloid nucleation score for the entry FKKNKQSSVKFGSNKSLQIG : 0.027

Value of measured amyloid nucleation score for the entry FNLALDRGR : -0.062

Value of measured amyloid nucleation score for the entry GGYRVLIFSIFRG : 0.599

Value of measured amyloid nucleation score for the entry WEVSPIGVPYSY : -0.117

====

experiment: amyloid nucleation score (Sup35N fusion, yeast selection) (log enrichment); library NNK2; higher = more nucleation; inactive = no reads after selection
Consider the following sequences; for each one, report its amyloid nucleation score.
Give only the figure.

Value of measured amyloid nucleation score for the entry TMLFTALDASHWG : 6.7

Value of measured amyloid nucleation score for the entry SSPSYSSSSHKRTL : 2.14

Value of measured amyloid nucleation score for the entry DLHPGNSNAD : -0.146

Value of measured amyloid nucleation score for the entry RLLLCLRLSY : 2.7

Value of measured amyloid nucleation score for the entry NSYIRHSFLQTRFISTNV : -0.306

Value of measured amyloid nucleation score for the entry CRSNQNESLNGC : 0.436

Value of measured amyloid nucleation score for the entry SQMYGLAYVCRQ : 6.28

Value of measured amyloid nucleation score for the entry QFSSLVFAEEKMNPRMCMVR : -0.294

====

experiment: amyloid nucleation score (Sup35N fusion, yeast selection) (log enrichment); library NNK2; higher = more nucleation; inactive = no reads after selection
Property: amyloid nucleation score

Known amyloid nucleation score results, listed for orientation:
1. FTCTGRRVYAQLKNVFIFVL : 1.92
2. NCSSIF : inactive
3. FCPVFST : -0.127
4. ISACFKMGNRGYVICAMSRV : -0.306
5. MSLSNDHSGAVWRRAFGYSE : 0.51
6. LASFGLRGVRQCQMNAE : 1.78
7. TMPFWKDFQT : 0.183
8. ECVDCESIEMEAVSC : 1.26

Value of measured amyloid nucleation score for the entry CTQVMTERV : -0.091

Value of measured amyloid nucleation score for the entry HSSEIL : -0.006

Value of measured amyloid nucleation score for the entry FGTILGSLVLVIWI : inactive

====

Consider the following substances; for each one, report its amyloid nucleation score.
test: amyloid nucleation score (Sup35N fusion, yeast selection) (log enrichment); library NNK1; higher = more nucleation; inactive = no reads after selection
Give only the figure.

Value of measured amyloid nucleation score for the entry VDKNMFI : -0.021

Value of measured amyloid nucleation score for the entry SCVSSLYCH : 0.057

Value of measured amyloid nucleation score for the entry WSCCAEERVTWGPAEMLLWG : -1.05

Value of measured amyloid nucleation score for the entry GSDQLSTT : -0.338

Value of measured amyloid nucleation score for the entry WSDYVDNPSVSARRSRQFRL : -1.21

Value of measured amyloid nucleation score for the entry IYLCCADFARIVMVTSTRWL : 0.052

Value of measured amyloid nucleation score for the entry NNGKSIPFPGGARKVSLGSG : 0.087

Value of measured amyloid nucleation score for the entry PHMMELSVDTKGNVLKVGSH : 0.055

Value of measured amyloid nucleation score for the entry RYYCFPTQLIHLTTT : -0.755

Value of measured amyloid nucleation score for the entry SWCNAYPQWWVRSLSMPS : -0.236

Value of measured amyloid nucleation score for the entry CLVFWETECSA : -0.323

Value of measured amyloid nucleation score for the entry LTVKCCDVSWVRFWYCIAGG : 6.62

Value of measured amyloid nucleation score for the entry CRTHDKCKDSGHSRLNGYSG : -0.299

Value of measured amyloid nucleation score for the entry YLRPGCSSVRSNATMGNSYL : 0.641

Value of measured amyloid nucleation score for the entry LFSRVFSAANVIRHNFLFME : 0.746

Value of measured amyloid nucleation score for the entry VVASAFSSL : 0.388

Value of measured amyloid nucleation score for the entry YSESVCSLLPQYSPVHPLFT : 0.891

Value of measured amyloid nucleation score for the entry DTLIAWTGLVMFTSVERGCS : -0.299

Value of measured amyloid nucleation score for the entry VFLLVPWPVSFGGRIHACEW : 0.286

Value of measured amyloid nucleation score for the entry RPSPEGY : 1.37

Value of measured amyloid nucleation score for the entry FYRSQMIFFYMLVAPMWGRL : -0.599

Value of measured amyloid nucleation score for the entry CALVYGWTEHDV : 1.44

Value of measured amyloid nucleation score for the entry GMNPQTHAPVILTLGVQNIR : 2.2

Value of measured amyloid nucleation score for the entry SHKRIWDIFNIGFHQCD : 0.048

Value of measured amyloid nucleation score for the entry LFVMSWYNYAVKFVAINTIT : -0.031

Value of measured amyloid nucleation score for the entry FCYIDMEFSFCLLSAEFISV : 0.03

Value of measured amyloid nucleation score for the entry MFISIGLPPQRRQDSHGWGG : 0.532

Value of measured amyloid nucleation score for the entry MIKSKM : -0.154

Value of measured amyloid nucleation score for the entry CRAQGFDASSHYCYLFLALS : -0.427

Value of measured amyloid nucleation score for the entry MVIPFFLSSLLSL : -0.835

Value of measured amyloid nucleation score for the entry VMGIDSFTYAG : -0.315

Value of measured amyloid nucleation score for the entry YNIVMMDS : 0.108

Value of measured amyloid nucleation score for the entry MRQQGWYTESTFVMCQFTGG : 2.04

Value of measured amyloid nucleation score for the entry KVYTWVPPTMNYRMNLFIVR : 0.036

Value of measured amyloid nucleation score for the entry SCIVLYMKGSGISCTNYTYC : 6.09

Value of measured amyloid nucleation score for the entry NMGIKVLSKYNVIYYSAGTP : 8.34

Value of measured amyloid nucleation score for the entry CERQNYVP : 0.326

Value of measured amyloid nucleation score for the entry DSTSDMLHLIIRTMISLISR : -0.257

Value of measured amyloid nucleation score for the entry VRMNCMDYQFNYLSLLLRTI : -0.401

Value of measured amyloid nucleation score for the entry TQHRRLVSRSQEFNVTQLKW : 2.3

Value of measured amyloid nucleation score for the entry GSKSFPSSGSSMQAAGTSSG : -0.069

Value of measured amyloid nucleation score for the entry TTSWDYFGAKEIIRFVMVTC : -2.12

Value of measured amyloid nucleation score for the entry THLLPFAGIGVCDLVRSAMG : 0.668

Value of measured amyloid nucleation score for the entry LDILDLVRTNVIRTKKPFEI : -0.348

Value of measured amyloid nucleation score for the entry TYMFGHMGADMKGRRSWWCE : 0.354

Value of measured amyloid nucleation score for the entry VSMATAVF : 1.22

Value of measured amyloid nucleation score for the entry SEGMCIKLPVALNYSYVHLG : 3.36

Value of measured amyloid nucleation score for the entry CNSFCGMHCGNV : 0.238

Value of measured amyloid nucleation score for the entry AQTWGESKTLPENLANYDAY : 0.241

Value of measured amyloid nucleation score for the entry GHDLSVPWRTDWLRGL : 0.177

Value of measured amyloid nucleation score for the entry HKLFNALNPKKG : 0.532

Value of measured amyloid nucleation score for the entry EVENRFVCGNSDLSGNDANK : -0.489

Value of measured amyloid nucleation score for the entry HVFPHLWKYYCMAVALVFLR : 1.38

Value of measured amyloid nucleation score for the entry IGCLKFSFFHNLGFGSIDYR : -0.742

Value of measured amyloid nucleation score for the entry FLLLAC : 0.197

Value of measured amyloid nucleation score for the entry TSLYNCRVRRLYFWWLRIML : 1.14

Value of measured amyloid nucleation score for the entry WDATLNKITYKRSLVGSVSK : 0.275

Value of measured amyloid nucleation score for the entry ECRVCL : -0.807

Value of measured amyloid nucleation score for the entry CTTLGLQPFRDWRFAGKLAR : 0.049

Value of measured amyloid nucleation score for the entry GALFWVIPIMLLMRSGLLDP : 0.498

Value of measured amyloid nucleation score for the entry MVKRRV : -0.232

Value of measured amyloid nucleation score for the entry QYYFARIREFLSIQFIAWYC : 0.172

Value of measured amyloid nucleation score for the entry NVSLRFGSYPGVNVGSAFMV : -0.109

Value of measured amyloid nucleation score for the entry VGSSVPGCRAGVFGLLDRCI : -0.489

Value of measured amyloid nucleation score for the entry VNAPST : 0.413

Value of measured amyloid nucleation score for the entry CLRGLNAPLYNRCFAGILLG : -0.6

Value of measured amyloid nucleation score for the entry NLGMALRSCMTSTHSVSMW : 0.433

Value of measured amyloid nucleation score for the entry ASTSYPWKSGVMVGGKLKNP : 0.287
